# credit: patent US8518956B2

I'd appreciate it if you could supply pIC50 values for the items below.
- system tested: PDE5 enzyme (Homo sapiens, UniProt O76074)
- Construct: The PDE5 enzyme isolated from human platelets; from tissue; host or cells: human platelets
- test: Method 1: Human Platelet PDE5 Enzyme Inhibition Scintillation Proximity Assay
- Format: biochemical
- assay conditions: METHOD 1: PDE5 IC50, Table B, WO2004096810 examples
- Experimental: Method 1: Human Platelet PDE5 Enzyme Inhibition Scintillation Proximity Assay An in vitro assay can be used to evaluate the inhibition of PDE5 enzyme activity by a test compound. […] Stocks of standard and test compounds are prepared at 5 mM in 100% DMSO. […] The beads are allowed to settle for 30 minutes and then read on a NXT TopCount scintillation counter. Data are analyzed with a curve fitting application for plate-based screening. […]
Units for pIC50: none; it is -log10 of a concentration expressed in mol/L.

Query :: Need pIC50, item CCOCCn1nc(COC)c2nc(N3CC4CCC(C3)N4)nc(Nc3cc(C)ccn3)c21 [WO2004096810 Example 242]
Result :: 9.21

Query :: Can you look up the measured pIC50 of CCOCCn1nc(C)c2nc(N(C)CC)nc(Nc3ccncn3)c21 [WO2004096810 Example 217] for me?
Result :: 8.59

Query :: Using the record for COCCCn1nc(C)c2nc(N3CCNCC3)nc(Nc3cc(C)n[nH]3)c21 [WO2004096810 Example 116] , report its pIC50.
Result :: 5.75

Query :: Name the reported pIC50 value associated with the molecule COCCCn1nc(C)c2nc(NCCO)nc(Nc3cc(C)ccn3)c21 [WO2004096810 Example 96]
Result :: 7.06

###

- system tested: PDE5 enzyme (Homo sapiens)
- Construct: The PDE5 enzyme isolated from human platelets; from tissue; host or cells: human platelets
- test: Method 1: Human Platelet PDE5 Enzyme Inhibition Scintillation Proximity Assay
- Assay type: biochemical
- assay conditions: METHOD 1: PDE5 IC50, Table B, WO2004096810 examples
parameter measured: IC50

Query :: Which IC50 value belongs to CCOCCn1nc(CC)c2nc(N3CC(N)C3)nc(Nc3ccncn3)c21 [WO2004096810 Example 3] ?
Result :: 43.8 nM

Query :: Suppose we examine the molecule CCOCCn1nc(CO)c2nc(N3C[C@@H]4C[C@H]3CN4)nc(Nc3cc(C)ccn3)c21 [WO2004096810 Example 229] ; what IC50 value has been reported?
Result :: 1.61 nM

Query :: Value lookup for IC50; key = CCCc1nn(C)c2c(Nc3ccc(C)cn3)nc(N(C)C3CNC3)nc12 [WO2004096810 Example 38]
Result :: > 10000 nM

Query :: Fill in the blank: the reported IC50 of CCOCCn1nc(CC)c2nc(N(C)[C@@H]3CCN(C)C3)nc(Nc3ccc(C)cn3)c21 [WO2004096810 Example 159] is ____.
Result :: 16.3 nM

Query :: Suppose we examine the molecule COCCn1nc(C)c2nc(N(C)[C@@H]3CCN(C)C3)nc(Nc3cc(C)ccn3)c21 [WO2004096810 Example 155] ; what IC50 value has been reported?
Result :: 13.4 nM

Query :: # get_value(readout='IC50', item= Cc1ccc(Nc2nc(N3CCN[C@H](C)C3)nc3c(C)nn(C(C)C)c23)nc1 [WO2004096810 Example 9] )
Result :: 508 nM

Query :: Give its IC50 value. Item: COCCCn1nc(C)c2nc(N[C@@H](C)CO)nc(Nc3cc(C)cc(C)n3)c21 [WO2004096810 Example 114]
Result :: 60.6 nM
